System: HT29 colon
Test: NCI-60 one-dose screen, 48 h (100 = growth as untreated, 0 = no growth, -100 = all killed)
Settings: 10 µM unless noted
About 83,000 compounds went through this panel and 20% of them were active in at least one assay; those are over-represented in the sample as a whole.
Can you tell me growth for the items I'm about to list?
Give the value in % but do not write % after it.

Task: For the compound "COc1cc2cc(Oc3ccc(NC(=O)Nc4cc(C(F)(F)F)cc(C(F)(F)F)c4)cc3)c(C)nc2cc1OCCN1CCCCC1" , what growth is on record?
Output: -64.8

Task: For the compound "CC(=O)Nc1nccs1" , what growth is on record?
Output: 101

Task: For the compound OC(c1cccc(OCc2ccccc2)c1)c1nnc(-c2ccccc2)o1 (stereo unspecified) , what growth is on record?
Output: 116

Task: For the compound "O=C(NCCN1CCC(O)CC1)c1cc2c(o1)C(=O)c1ccccc1C2=O" , what growth is on record?
Output: -5.34

Task: For the compound "Cc1ccc(O)c(C(=O)c2ccccc2Cl)c1" , what growth is on record?
Output: 108

Task: For the compound C=C(C=O)C1CCC2(C(=O)O)CCC3(C)C(CCC4C5(C)CCC(O)C(C)(C)C5CCC43C)C12 (stereo unspecified) , what growth is on record?
Output: 3.49

Task: For the compound "O=C1c2ccccc2C(=O)c2cc(Cn3cc[n+](Cc4ccc5ccccc5c4)c3)ccc21" , what growth is on record?
Output: 73.1

Task: For the compound O=C(/C=C/C12c3ccccc3C(c3ccccc31)C1C(=O)NC(=O)C12)c1ccccc1 (stereo unspecified) , what growth is on record?
Output: 18.3

Task: For the compound "CC1=CC(=O)C(C(C)C)=CC1=Nc1cc(Br)c(O)c(Br)c1" , what growth is on record?
Output: 66.2

Task: For the compound "CSc1ccc(Cl)c(C(=O)Nc2sccc2C(N)=O)c1" , what growth is on record?
Output: 118

Task: For the compound "COc1ccc(N(C)c2nc(Cl)nc3cnn(C)c23)cc1" , what growth is on record?
Output: -9.42

----------
Tested on: CAKI-1 renal
Experiment: NCI-60 one-dose screen, 48 h
Conditions: 10 µM unless noted
The panel holds about 83,000 compounds, 20% with a hit somewhere; the sample as a whole holds those more often. Activity calls are given as the source filed them. How the source made its calls: active means growth percent below 10; inactive means the rest.
Select the correct class. Options are active, inactive and nothing else.

Task: Given "Clc1ccc(-c2nnc(Cn3ccnc3)o2)cc1" , state the outcome it received in this test.
Output: inactive

Task: Given "COc1ccc(/C(C)=C(\c2ccc(Cl)cc2)c2ccc(OCCN(C)C)cc2)cc1F" , state the outcome it received in this test.
Output: inactive

Task: Given "COc1ccc(/C(C)=C(\c2ccc(Cl)cc2)c2ccc(OCCN3CCCCC3)cc2)cc1F" , state the outcome it received in this test.
Output: inactive

Task: Given "Cc1nc(Nc2ccc(S(=O)(=O)Nc3cc(C)on3)cc2)c2ccccc2n1" , state the outcome it received in this test.
Output: inactive

Task: Given "Cc1ccccc1NC(=O)CN(C)C" , state the outcome it received in this test.
Output: inactive

Task: Given "CSc1ncc(C)c(Nc2ccc(Cl)cc2)n1" , state the outcome it received in this test.
Output: inactive

Task: Given "COc1ccc(/C(C)=C(\c2ccc(Cl)cc2)c2ccc(OCCCN(C)C)cc2)cc1F" , state the outcome it received in this test.
Output: inactive

Task: Given "Cc1ccc2c(n1)C(=O)C(Oc1ccc(F)cc1)=CC2=O" , state the outcome it received in this test.
Output: inactive

Task: Given O=C(/C=C/C12c3ccccc3C(c3ccccc31)C1C(=O)NC(=O)C12)c1ccc(Cl)cc1 (configuration not stated) , state the outcome it received in this test.
Output: inactive

Task: Given "Clc1ccc(/C=C/c2nc(Nc3ccc(Cl)cc3)c3ccccc3n2)cc1" , state the outcome it received in this test.
Output: inactive

Task: Given "CCOC(=O)c1sc(-c2ccc(OS(=O)(=O)c3ccc(C(C)(C)C)cc3)c(C=O)c2)nc1C" , state the outcome it received in this test.
Output: inactive

Task: Given "CCNCCNc1cc(-c2ccc(F)cc2)c(C#N)c2nc3ccccc3n12" , state the outcome it received in this test.
Output: inactive

Task: Given "C[C@@H](C[C@H](CCOCc1cccnc1)c1ccccc1)c1cc2ccccc2o1" , state the outcome it received in this test.
Output: inactive

Task: Given "CCNCCNc1cc(C2CCCC2)c(C#N)c2nc3ccccc3n12" , state the outcome it received in this test.
Output: inactive

Task: Given "Cc1nc2ccc(C(=O)NCc3cc(C(=O)O)c(C)o3)cc2nc1C" , state the outcome it received in this test.
Output: inactive

Task: Given "CCN(CC)N=Nc1nn(C(=O)Nc2ccc(Cc3ccccc3)cc2)c2ccc(Cl)cc12" , state the outcome it received in this test.
Output: inactive

Task: Given "CC(=[N-])N1CCC[C@@H](Nc2c3ccccc3nc3ccccc23)C1.[Cl][Pt].[NH-]CCC[NH-]" , state the outcome it received in this test.
Output: inactive

Task: Given "Cc1cc(N2CCCCC2)nc(N(CCNc2ccnc3cc(Cl)ccc23)Cc2ccccn2)n1" , state the outcome it received in this test.
Output: inactive

Task: Given "N#Cc1c(NC(=O)c2ccc(Br)cc2)sc2c1CCCC2" , state the outcome it received in this test.
Output: inactive

Task: Given "CC[C@@H](C[C@H](CCO)c1ccccc1)c1cc2ccccc2o1" , state the outcome it received in this test.
Output: inactive

Task: Given O=c1[nH]c(=O)n(C2CC(O)C(CO)O2)cc1CO (configuration not stated) , state the outcome it received in this test.
Output: inactive

Task: Given "CCCCOc1ccc(NC(=O)n2nc(N=NN(C)C)c3ccc(Cl)cc32)cc1" , state the outcome it received in this test.
Output: inactive

Task: Given "CCOC(=O)c1sc2ccc(NCc3nc[nH]c3C)cc2c1NC(=O)c1cc(OC)c(OC)c(OC)c1" , state the outcome it received in this test.
Output: inactive

Task: Given "Cc1nc(Nc2cccc(NC(=O)Nc3ccc(Cl)cc3)c2)c2ccccc2n1" , state the outcome it received in this test.
Output: inactive

Task: Given "COc1ccc(OC)c(/C=C2\COc3ccc(O)cc3C2=O)c1" , state the outcome it received in this test.
Output: inactive

Task: Given CCOc1cc(C2C(Cl)C(=O)N2n2cnnc2)ccc1O (configuration not stated) , state the outcome it received in this test.
Output: inactive

Task: Given "CS(=O)(=O)c1ccc(-c2nc3cc(Cl)ccc3n2CC(=O)NO)cc1" , state the outcome it received in this test.
Output: inactive

Task: Given "O=C(NC(=S)Nc1ccc(-c2nc3ccccc3[nH]2)cc1)c1ccc2ccccc2c1" , state the outcome it received in this test.
Output: inactive

Task: Given "COc1ccc(CN2C(=O)/C(=C\c3cc(OC)c(OC)c(OC)c3)c3ccccc32)cc1" , state the outcome it received in this test.
Output: active

Task: Given "COc1cccc(-c2cnco2)c1OCc1c(C)c(COc2c(OC)cccc2-c2cnco2)c(C)c(COc2c(OC)cccc2-c2cnco2)c1C" , state the outcome it received in this test.
Output: inactive

Task: Given "C=C1C(=O)O[C@H]2[C@H]1CC/C(COC(=O)/C=C/C(=O)NCc1ccc(Cn3c(=O)sn(-c4ccccc4)c3=O)cc1)=C\CC[C@@]1(C)O[C@@H]21" , state the outcome it received in this test.
Output: inactive

Task: Given "COc1ccc(/C=C2\C=C(c3ccccc3)N(CCc3ccccc3)C2=O)cc1OC" , state the outcome it received in this test.
Output: inactive

Task: Given "CN(C)c1ccc(/C=C2\C=C(c3ccccc3)N(CCc3ccccc3)C2=O)cc1" , state the outcome it received in this test.
Output: inactive

Task: Given "CS(=O)(=O)c1ccc(-c2nc3cc(Cl)ccc3n2CC(=O)N/N=C/c2ccc(Cl)cc2)cc1" , state the outcome it received in this test.
Output: inactive

Task: Given "COc1ccc(-c2nc3sc4c(c3c(=O)[nH]2)CCCC4)c2ccccc12" , state the outcome it received in this test.
Output: active

Task: Given "CCOc1cc(N)ccc1C(=O)NCCCN(CC)CC" , state the outcome it received in this test.
Output: inactive

Task: Given "O=C1NN(C(=O)c2ccc(O)cc2)C(c2ccccc2)=N/C1=C\c1cn(-c2ccccc2)nc1-c1ccccc1" , state the outcome it received in this test.
Output: inactive

Task: Given "CCCc1nc2ccccn2c1Nc1ccc(C(=O)NO)cc1" , state the outcome it received in this test.
Output: inactive

Task: Given "COc1ccc(C(=O)/C=C/c2cc3c(c(OC)c2)OCC(=O)N3)cc1" , state the outcome it received in this test.
Output: inactive

Task: Given "COc1ccc2c(c1)/C(=C\c1sc(=S)[nH]c1O)C(C(=O)O)=N2" , state the outcome it received in this test.
Output: inactive

Task: Given "N=C(N)c1ccc(-c2ccc(/C=C/c3ccccc3)s2)cc1" , state the outcome it received in this test.
Output: inactive

Task: Given N=c1ccn2c(n1)OC1C(O)C(CO)OC12 (configuration not stated) , state the outcome it received in this test.
Output: active
